# TGI listing for each entry below
Test system: OVCAR-4 ovarian
PROCEDURE_TEXT: NCI tumour cell line growth inhibition, 48 h

Previously resolved entries follow.
COMPOUND | MEASUREMENT
COc1ccc(-n2cnn3c(=O)c4cn[nH]c4nc23)cc1 | > 10 µM
CCC1CCc2c(c(=O)oc3c2cc(OC)c2cccc(OC)c23)C1 (stereo unspecified) | > 100 µM
O=P1(c2ccccc2)CCCCC1 | > 100 µM
CN(CCO)c1ccc(N2Cc3ccccc3OC3=C2C(=O)c2c(O)ccc(O)c2C3=O)cn1 | 0.343 µM

Entry CN(C)CCNC(=O)c1ccc2nc3c(nc2c1)C(=O)c1ccccc1-3 , TGI reported as > 100 µM

Entry O=C(O)c1ccc(OCc2ccccc2)c(Cl)c1 , TGI reported as > 100 µM

Entry CCOC(=O)c1c(NC(=O)c2cccc(C(F)(F)F)c2)sc2c(CN(C)C)c(O)ccc12 , TGI reported as 21.5 µM

Entry C=CC1C(OC2OC(CO)C(O)C(O)C2O)OC=C(C(=O)OC)C1CC1CC(=O)CC(CCc2ccc(O)cc2)O1 (stereo unspecified) , TGI reported as > 100 µM

Entry COc1ccc2c(c1)C(=O)OCCC2 , TGI reported as > 100 µM

Entry CN1C(=O)c2ccccc2OC12C=Cc1ccc(O)cc1O2 (stereo unspecified) , TGI reported as 96.9 µM

Entry CC(=O)O[C@H]1CCC2[C@@H]3CCC4Nc5oncc5C[C@]4(C)C3CC[C@@]21C (stereo partly specified) , TGI reported as > 10 µM

----------
# TGI listing for each entry below
Test system: NCI-H23 lung
PROCEDURE_TEXT: NCI tumour cell line growth inhibition, 48 h

Previously resolved entries follow.
COMPOUND | MEASUREMENT
CN(CCO)c1ccc(N2Cc3ccccc3OC3=C2C(=O)c2c(O)ccc(O)c2C3=O)cn1 | 0.834 µM
C/C(=N/NC(=S)Nc1ccc(Cl)cc1)c1cccc(/C(C)=N\NC(=S)Nc2ccc(Cl)cc2)n1 | > 100 µM
COc1ccc2c(c1)C(=O)OCCC2 | > 100 µM
CCOc1ccncc1[N+](=O)[O-] | > 100 µM
O=C(Nc1ccc(F)cc1)c1cc(S(=O)(=O)Nc2nc3ccccc3o2)c(SCc2ccccc2)cc1Cl | 36.9 µM
COc1cc(N(CCC#N)CCC#N)ccc1/C(N=Nc1ccccc1C)=N\NC(=O)c1ccc(C)cc1 | > 100 µM
Fc1ccc(C(=C2CCN(CCc3ccc4[nH]c(=S)[nH]c4c3)CC2)c2ccc(F)cc2)cc1 | 13.1 µM
COC(=O)c1ccccc1Nc1nc(-c2cccs2)nc2cc(OC)c(OC)cc12 | > 100 µM

Entry CCOP(=O)(COCCn1ncc(=O)[nH]c1=O)OCC , TGI reported as > 100 µM

Entry COC(=O)CC1C=CC(C)(OC)OO1 (stereo unspecified) , TGI reported as > 100 µM

Entry CC1=NC(=Cc2cc(Br)cc(Br)c2)C(=O)N1n1c(-c2ccccc2)nc2ccccc2c1=O , TGI reported as > 100 µM

Entry CCC(=O)O[C@H]1CC[C@H]2[C@@H]3CCC4=C/C(=N/OC(=O)c5cccc6c(=O)c7ccccc7[nH]c56)CC[C@]4(C)[C@H]3CC[C@]12C , TGI reported as > 100 µM

Entry O=C(CSC1CCc2ccccc21)N/N=C/c1ccccc1O (stereo unspecified) , TGI reported as > 100 µM

Entry O=C1c2ccccc2-c2c1c1ccccc1c(=O)n2CCCCl , TGI reported as 50.1 µM

Cited source: PubChem BioAssay (NCI)
